target: human CD33 variant P48K (human, UniProt P20138 18-364); assay: flow cytometry, IgG on cells expressing the mutant
Sequence (P20138 18-364 P48K limits assumed): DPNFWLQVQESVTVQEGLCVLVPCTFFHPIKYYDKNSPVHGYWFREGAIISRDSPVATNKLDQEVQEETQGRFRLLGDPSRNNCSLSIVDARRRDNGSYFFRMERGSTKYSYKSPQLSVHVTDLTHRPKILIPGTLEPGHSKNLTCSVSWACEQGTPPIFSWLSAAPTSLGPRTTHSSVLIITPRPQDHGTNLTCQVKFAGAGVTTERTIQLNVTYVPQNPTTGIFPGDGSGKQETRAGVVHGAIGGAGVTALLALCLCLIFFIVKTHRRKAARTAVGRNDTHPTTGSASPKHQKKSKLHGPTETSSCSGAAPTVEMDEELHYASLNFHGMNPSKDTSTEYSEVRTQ
PROPERTY: Mean % WT Binding

binder="Refmab #2 (antibody, human IgG1, V domains shown, Tested in IgG format; human IgG1 Fc silent (PG-LALA)) VH: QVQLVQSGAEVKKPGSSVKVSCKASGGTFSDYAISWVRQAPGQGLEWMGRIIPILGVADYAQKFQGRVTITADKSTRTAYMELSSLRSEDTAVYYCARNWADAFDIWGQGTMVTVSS VL: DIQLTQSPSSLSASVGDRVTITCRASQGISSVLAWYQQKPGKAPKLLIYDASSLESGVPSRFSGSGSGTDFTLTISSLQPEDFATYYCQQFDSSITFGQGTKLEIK" result="106 % of WT"
binder="Refmab #1 (antibody, human IgG1, V domains shown, Tested in IgG format; human IgG1 (Absolute Antibody hP67.6, Cat. No. Ab00283-10.0); also called hP67.6) VH: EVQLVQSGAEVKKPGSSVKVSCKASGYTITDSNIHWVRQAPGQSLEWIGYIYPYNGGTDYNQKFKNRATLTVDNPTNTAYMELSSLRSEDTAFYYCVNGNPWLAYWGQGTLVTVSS VL: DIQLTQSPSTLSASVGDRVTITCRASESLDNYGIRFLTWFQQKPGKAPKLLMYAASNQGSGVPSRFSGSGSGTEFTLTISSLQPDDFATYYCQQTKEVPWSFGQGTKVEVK" result="99.4 % of WT"
binder="Refmab #3 (antibody, human IgG1, V domains shown, Tested in IgG format; human IgG1 Fc silent (PG-LALA)) VH: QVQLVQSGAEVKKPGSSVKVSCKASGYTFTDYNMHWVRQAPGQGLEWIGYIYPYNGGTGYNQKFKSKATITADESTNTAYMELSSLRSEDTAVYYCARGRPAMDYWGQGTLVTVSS VL: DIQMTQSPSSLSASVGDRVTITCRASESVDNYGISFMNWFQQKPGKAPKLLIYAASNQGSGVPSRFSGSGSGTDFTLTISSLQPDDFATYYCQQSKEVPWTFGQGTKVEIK" result="67.3 % of WT"
binder="Refmab #4 (antibody, human IgG1, V domains shown, Tested in IgG format; human IgG1 Fc silent (PG-LALA)) VH: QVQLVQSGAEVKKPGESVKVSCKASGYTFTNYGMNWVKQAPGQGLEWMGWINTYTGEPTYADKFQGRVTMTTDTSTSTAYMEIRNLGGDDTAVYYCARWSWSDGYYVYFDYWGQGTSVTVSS VL: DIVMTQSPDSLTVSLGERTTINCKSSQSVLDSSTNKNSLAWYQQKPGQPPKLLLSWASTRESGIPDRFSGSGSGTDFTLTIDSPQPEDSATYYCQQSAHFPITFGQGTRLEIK" result="0 % of WT"
